Tested on: A549
ASSAY_EXPLANATION: Drug uptake in 10^6 human A549 cells at 15 uM after 48 hrs by UPLC-MS analysis
Format: ADME, cell-based
EXPERIMENTAL_PARAMETERS: a549, 48 h
PROPERTY_MEASURED: Drug uptake (pmol)

Study these solved cases before continuing.
> print(dat)
                                     smiles  property.measured  recorded.value
1  CCCCCCCC/C=C\CCCCCCCCS[C@@H]1O[C@H](CO)[C@@H](O)[C@H](O)[C@H]1NC(C)=O        Drug uptake            3333
2  CCCCCCCC/C=C\CCCCCCCCS[C@H]1O[C@H](CO)[C@@H](O)[C@H](O)[C@H]1NC(C)=O        Drug uptake            3675

A: CCCCCCCC/C=C\CCCCCCCCO[C@H]1O[C@H](CO)[C@@H](O)[C@H](O)[C@H]1NC(C)=O
B: CCCCCCCC/C=C\CCCCCCCCO[C@@H]1O[C@H](CO)[C@@H](O)[C@H](O)[C@H]1NC(C)=O
Q: Identify the item whose Drug uptake is the smaller number: A or B Label of pick, please.
A: B

###

Tested on: A549
ASSAY_EXPLANATION: Reduction in ganglioside GM2 content of human A549 cell extract at 15 uM after 48 hrs by UPLC-MS analysis
Type: functional, cell-based
The source made the active and inactive calls. The rule behind the calls is not given here.
PROPERTY_MEASURED: Activity

> print(dat)
                                     smiles  measured.target  recorded.value
1  CCCCCCCC/C=C\CCCCCCCCO[C@@H]1O[C@H](CO)[C@@H](O)[C@H](O)[C@H]1NC(C)=O             A549          Active
2  CCCCCCCC/C=C\CCCCCCCCS[C@H]1O[C@H](CO)[C@@H](O)[C@H](O)[C@H]1NC(C)=O             A549          Active
3  CCCCCCCC/C=C\CCCCCCCCS[C@@H]1O[C@H](CO)[C@@H](O)[C@H](O)[C@H]1NC(C)=O             A549          Active
4  CCCCCCCC/C=C\CCCCCCCCO[C@H]1O[C@H](CO)[C@@H](O)[C@H](O)[C@H]1NC(C)=O             A549          Active
